Target system: recombinant human cGAS (Homo sapiens (Human), UniProt Q8N884)
Sequence (Q8N884 whole entry): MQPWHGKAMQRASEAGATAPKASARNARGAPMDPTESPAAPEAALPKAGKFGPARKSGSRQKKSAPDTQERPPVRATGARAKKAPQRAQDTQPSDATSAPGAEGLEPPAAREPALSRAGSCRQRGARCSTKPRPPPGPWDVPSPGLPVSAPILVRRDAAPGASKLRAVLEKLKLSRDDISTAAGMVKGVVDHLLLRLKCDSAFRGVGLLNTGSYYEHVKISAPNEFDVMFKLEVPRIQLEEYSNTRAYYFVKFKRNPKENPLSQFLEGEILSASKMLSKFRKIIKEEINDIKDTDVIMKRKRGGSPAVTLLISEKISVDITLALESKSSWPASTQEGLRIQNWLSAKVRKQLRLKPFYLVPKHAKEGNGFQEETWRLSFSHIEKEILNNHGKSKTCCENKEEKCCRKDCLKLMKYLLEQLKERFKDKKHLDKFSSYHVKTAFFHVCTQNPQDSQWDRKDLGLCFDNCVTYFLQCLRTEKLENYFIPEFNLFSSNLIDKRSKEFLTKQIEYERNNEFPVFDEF
Method: In vitro inhibition assay of cGAS activity (cGAMP production, RapidFire mass spectrometry)
Type: biochemical
Setup conditions: 10 nM recombinant human cGAS, 60 nM 75-bp dsDNA, ATP, GTP, room temperature 3 hours, read-out: IC50 (μM), In vitro inhibition assay for Compounds 95-348
Where a name gives a salt, the structure may show the parent alone.
Catalogue of IC50 readings, one per entry.
All answers are understood in µM, so give the number only.

Past entries and their recorded results:
{"Compound": "OC[C@@H]1C[C@@H]1Oc1cc(Cl)c(Cl)c2[nH]cc(-c3cn[nH]c3)c12 (racemic) [Example 137, hydrochloride]", "Target system": "recombinant human cGAS (Homo sapiens (Human), UniProt Q8N884)", "IC50 (µM)": 0.0165}
{"Compound": "OCCn1cc(-n2cc(-c3cn[nH]c3)c3ccc(Cl)c(Cl)c32)nn1 [Example 138]", "Target system": "recombinant human cGAS (Homo sapiens (Human), UniProt Q8N884)", "IC50 (µM)": 0.0462}
{"Compound": "O=C(CO)NC1Cc2c(-c3cn[nH]c3)c3ccc(Cl)c(Cl)c3n2C1 (single isomer, unassigned) [Example 248]", "Target system": "recombinant human cGAS (Homo sapiens (Human), UniProt Q8N884)", "IC50 (µM)": 0.0396}

In the following, a different compound is considered.
[Q] Print recombinant human cGAS (Homo sapiens (Human), UniProt Q8N884) IC50 for Cn1ncnc1CCC(=O)N1CCn2c(c(-c3cn[nH]c3)c3ccc(Cl)c(Cl)c32)C1 [Example 110] .
[A] 0.0561

* * *

Target system: recombinant human cGAS (Homo sapiens (Human))
Method: In vitro inhibition assay of cGAS activity (cGAMP production, RapidFire mass spectrometry)
Assay type: biochemical
Setup conditions: 10 nM recombinant human cGAS, 60 nM 75-bp dsDNA, ATP, GTP, room temperature 3 hours, read-out: IC50 (μM), In vitro inhibition assay for Compounds 95-348
Structures can show the parent of a compound that is named as a salt.
Mark Yes for IC50 under 0.03 µM, No if at or over.

{"Compound": "N#CCOc1cc(Cl)c(Cl)c2c1c(-c1cn[nH]c1)c1n2CC[C@@H]1NC(=O)CO [Example 344]", "Group": "Yes"}
{"Compound": "CNC(=O)CCS(=O)(=O)NC1CCc2c(-c3cn[nH]c3)c3ccc(Cl)c(Cl)c3n2C1 (centres unmarked) [Example 118]", "Group": "Yes"}
{"Compound": "O=C1CC(CC(=O)N2CCn3c(c(-c4cn[nH]c4)c4c(NC(=O)C(F)F)cc(Cl)c(Cl)c43)C2)CCN1 (centres unmarked) [Example 276]", "Group": "No"}

[Q] Is the reported IC50 for COCC(=O)N(C)CC(=O)N1CCn2c(c(-c3cn[nH]c3)c3ccc(Cl)c(Cl)c32)C1 [Example 318] strictly below 0.03 µM?
[A] No

[Q] Please determine if CN1CC(C(=O)N2CCn3c(c(-c4cn[nH]c4)c4c(OCC#N)cc(Cl)c(Cl)c43)C2)CC1=O (centres unmarked) [Example 291] is below 0.03 µM in terms of IC50.
[A] No

[Q] Please indicate whether the reported IC50 of COCc1[nH]c2c(Cl)c(Cl)cc(NC(=O)C(F)F)c2c1-c1cn[nH]c1 [Example 132] is strictly below 0.03 µM.
[A] Yes

[Q] # strict comparison: is reported IC50 < 0.03 µM? input = CC(C)(O)C(=O)NC1CCc2c(-c3cn[nH]c3)c3ccc(Cl)c(Cl)c3n2C1 (centres unmarked) [Example 189]
[A] Yes

[Q] State whether 0.03 µM exceeds IC50 recorded for NCC(=O)NCc1[nH]c2c(Cl)c(Cl)ccc2c1-c1cn[nH]c1 [Example 216, formic acid salt] .
[A] No
